biological target: DNA polymerase lambda (Homo sapiens); experiment: Inhibition of recombinant His-tagged human DNA polymerase lambda using poly(dA)/oligo(dT)18 (A/T = 2/1) and dTTP as the DNA template-primer and nucleotide substrate at 10 uM after 60 mins
Activity calls are given as the source filed them. No cut-off for these calls is given here.
readoutName: inhibition

| molecule | reportedMeasurement |
| --- | --- |
| CC/C=C\C/C=C\C/C=C\C/C=C\C/C=C\C/C=C\CCC(=O)Oc1cccc2c1C(=O)C=CC2=O | Active |
| CCCCCC(=O)O [HEXANOATE] | inactive |
| CCCCCCCCCCCCCCCCCC(=O)Oc1cccc2c1C(=O)C=CC2=O | Active |
| CCCCCCCCCCCC(=O)Oc1cccc2c1C(=O)C=CC2=O | Active |
| CCCCCC(=O)Oc1cccc2c1C(=O)C=CC2=O | Active |
| CC/C=C\C/C=C\C/C=C\C/C=C\C/C=C\CCCC(=O)Oc1cccc2c1C(=O)C=CC2=O | Active |
| CCC(=O)Oc1cccc2c1C(=O)C=CC2=O | Active |
| CCCCC/C=C\C/C=C\CCCCCCCC(=O)Oc1cccc2c1C(=O)C=CC2=O | Active |
| CC/C=C\C/C=C\C/C=C\CCCCCCCC(=O)Oc1cccc2c1C(=O)C=CC2=O | Active |
| CC/C=C\C/C=C\C/C=C\CCCCCCCC(=O)O [LINOLENIC ACID] | inactive |
| CCCCCCCC/C=C\CCCCCCCC(=O)Oc1cccc2c1C(=O)C=CC2=O | Active |

* * *

Sequence of the target: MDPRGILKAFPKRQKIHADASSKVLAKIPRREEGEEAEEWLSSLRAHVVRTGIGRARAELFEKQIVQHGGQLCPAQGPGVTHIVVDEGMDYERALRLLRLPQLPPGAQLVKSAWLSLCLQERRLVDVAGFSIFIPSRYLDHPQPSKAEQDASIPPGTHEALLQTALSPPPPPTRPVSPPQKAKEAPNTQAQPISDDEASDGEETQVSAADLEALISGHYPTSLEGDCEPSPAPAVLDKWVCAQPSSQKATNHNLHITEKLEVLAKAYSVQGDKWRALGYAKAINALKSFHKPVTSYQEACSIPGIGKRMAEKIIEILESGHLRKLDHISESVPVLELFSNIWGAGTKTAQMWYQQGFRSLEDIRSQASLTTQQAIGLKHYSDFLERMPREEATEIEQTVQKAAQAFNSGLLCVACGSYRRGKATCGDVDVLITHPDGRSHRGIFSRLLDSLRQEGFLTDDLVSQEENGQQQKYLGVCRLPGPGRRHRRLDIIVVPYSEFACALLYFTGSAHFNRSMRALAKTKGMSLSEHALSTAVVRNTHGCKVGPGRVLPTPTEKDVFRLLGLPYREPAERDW

| compoundStructure | IC50 [µM] |
| --- | --- |
| CCCCCCCCCCCC(=O)Oc1cccc2c1C(=O)C=CC2=O | 7 |
| CCCCCCCC/C=C\CCCCCCCC(=O)Oc1cccc2c1C(=O)C=CC2=O | 10.2 |

* * *

species on record: Bos taurus; experiment: Inhibition of calf DNA polymerase alpha using bovine deoxyribonuclease 1-treated DNA and dNTP as the DNA template-primer and nucleotide substrate at 10 uM after 60 mins
Calls of active or inactive are those of the source. The calls are words filed in the database; no cut-off is given here.
readoutName: inhibition

| compound | reportedMeasurement |
| --- | --- |
| CCCCC/C=C\C/C=C\CCCCCCCC(=O)Oc1cccc2c1C(=O)C=CC2=O | Active |
| CCCCCCCCCCCC(=O)O [DODECANOATE] | inactive |
| CCCCCCCC/C=C\CCCCCCCC(=O)Oc1cccc2c1C(=O)C=CC2=O | Active |
| CCC(=O)O | inactive |
| CCCCCC(=O)Oc1cccc2c1C(=O)C=CC2=O | Active |
| CCCCC/C=C\C/C=C\CCCCCCCC(=O)O | inactive |

Hey, just so you know, these numbers are from ChEMBL document CHEMBL1914406.
